# Study Target: T1, His-tagged huCB1-ND (human CB1 in nanodisc) (human)
# T1 construct: CB1 construct of Cell 167(3) (2016) 750-762 expressed in Sf9 cells; POPC:MSP1D1:CB1 480:8:1; also called CB1-nanodisc; huCB1-Nanodisc; not shown: histidine purification tag
# T1 sequence (P21554 99-414): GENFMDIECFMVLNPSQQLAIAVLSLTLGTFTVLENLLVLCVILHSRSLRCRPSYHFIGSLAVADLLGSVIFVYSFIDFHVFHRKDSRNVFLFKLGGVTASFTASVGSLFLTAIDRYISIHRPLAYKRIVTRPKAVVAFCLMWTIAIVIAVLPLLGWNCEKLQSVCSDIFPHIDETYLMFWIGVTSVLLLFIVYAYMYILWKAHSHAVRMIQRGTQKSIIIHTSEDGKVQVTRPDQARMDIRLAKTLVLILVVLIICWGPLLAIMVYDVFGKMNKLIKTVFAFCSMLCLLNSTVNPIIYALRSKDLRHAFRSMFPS
# Protocol Notes: flow cytometry, yeast-displayed IgG, binding/display ratio
Listed binders paired with reported relative binding to 0.2 nM huCB1-ND (relative to 10D10N35Y)
// units = fold; emit number, no label

Binder: LIBC523868-1 (antibody, V domains shown) VH: QVQLQESGPGLVKPSQTLSLTCTVSGGSIRRGGDYWSWIRQHPGKGLEWIGHVYYEGSTAYNPSFEDRATISVNTYKNQFSLKLSSVTAADTAVYYCARDYDILTGYSYYYYGMDVWGQGTTVTVSS VL: DIVMTQSPLSLPVTPGEPASISCRSSQSLLTSYGINYVDWYLQKPGQSPQLLIYLGSNRASGVPDRFSGSGSGTDFTLKISRVEAEDVGVYYCMQARQIPRTFGQGTKVEIKR
Quantitative Result: 6.28

Lab note: LIBC523844-1 (antibody, V domains shown) VH: QVQLQESGPGLVKPSQTLSLTCTVSGGSIRRGGDYWSWIRQHPGKGLEWIGHVYYTGSTKYNPSFKDRATISVNTYKNQFSLKLSSVTAADTAVYYCARDYDILTGYSYYYYGMDVWGQGTTVTVSS VL: DIVMTQSPLSLPVTPGEPASISCRSSQSLLSSSGANYVDWYLQKPGQSPQLLIYQGSNRASGVPDRFSGSGSGTDFTLKISRVEAEDVGVYYCRQARALPRTFGQGTKVEIKR gave relative binding to 0.2 nM huCB1-ND (relative to 10D10N35Y) of 3.78

Lab note: LIBC523857-1 (antibody, V domains shown) VH: QVQLQESGPGLVKPSQTLSLTCTVSGGSIRRGGDYWSWIRQHPGKGLEWIGHIYQTGQTAYNPRLEGRATISVNTYKNQFSLKLSSVTAADTAVYYCARDYDILTGYSYYYYGMDVWGQGTTVTVSS VL: DIVMTQSPLSLPVTPGEPASISCRSSQSLLSSTGANYLDWYLQKPGQSPQLLIYLGSNRASGVPDRFSGSGSGTDFTLKISRVEAEDVGVYYCRQAVELPRTFGQGTKVEIKR gave relative binding to 0.2 nM huCB1-ND (relative to 10D10N35Y) of 4.05

Lab note: LIBC523603-1 (antibody, V domains shown) VH: QVQLQESGPGLVKPSQTLSLTCTVSGGSIRRGGDYWAWIRQHPGKGLEWIGHVYQSGQTAYNPNFENRATISVNTYKNQFSLKLSSVTAADTAVYYCARDYDAVSGYSYYYYGMDVWGQGTTVTVSS VL: DIVMTQSPLSLPVTPGEPASISCRSSQSLLSSYGNNYVDWYLQKPGQSPQLLIYQGSNRASGVPDRFSGSGSGTDFTLKISRVEAEDVGVYYCRQAVGLPRTFGQGTKVEIKR gave relative binding to 0.2 nM huCB1-ND (relative to 10D10N35Y) of 6.05

Lab note: LIBC523813-1 (antibody, V domains shown, also called LIBC523813-1 + VK2 germline fix) VH: QVQLQESGPGLVKPSQTLSLTCTVSGGSIRRGGDYWSWIRQHPGKGLEWIGHVYYTGQTAYNPKFKDRATISVKTYKNQFSLKLSSVTAADTAVYYCARDYDILTGYSYYYYGMDVWGQGTTVTVSS VL: DIVMTQSPLSLPVTPGEPASISCRSSQSLLSSSGANYVDWYLQKPGQSPQLLIYLGSNRASGVPDRFSGSGSGTDFTLKISRVEAEDVGVYYCMQARGIPRTFGQGTKVEIKR gave relative binding to 0.2 nM huCB1-ND (relative to 10D10N35Y) of 3.38

Data origin: patent US20250277029A1
